- Assay overview: basal S. cerevisiae growth modulation, no modifier, primary screen, OD600, strain BY4716, 24 h, basal condition (AID 1173)
- Condition details: OD600, 24 h, higher = more signal, called active from +8 up or from −8 down
I'd appreciate it if you could label each record using z-score and these ranges: low range: < -0.6; mid range: ≥ -0.6 and < 0.4; high range: ≥ 0.4

Molecule	Category
C#C[C@@H](CC)O[Si](C#Cc1ccc(Oc2ccccc2)cc1)(C(C)C)C(C)C	low range

Request: Given COc1ccc(O[C@H]2C=C[C@@H](c3ccccc3)O[C@@H]2CON=C[C@@H](C)[C@H](OCc2ccccc2)C(C)C)cc1 , name the class its z-score places it in.
Response: high range

Request: Given CCCCCN1CC=CC23O[C@@H]4C=CCOC(=O)[C@@H]4[C@H]2C(=O)N(CCCCCCO)[C@@H]3C1=O (stereo partly specified) , name the class its z-score places it in.
Response: high range

Request: Given O=C1[C@H]2[C@H]3[C@H](O)[C@H](O)CC(=NO[C@@H]4O[C@H](CO)[C@@H](O)[C@H](O)[C@H]4O)[C@@H]3CC[C@H]2C(=O)N1Cc1ccc2c(c1)OCO2 , name the class its z-score places it in.
Response: mid range

---

- Measurement target: E3 ubiquitin-protein ligase XIAP (Homo sapiens)
- Assay overview: XIAP binders, primary screen, biophysical, small-molecule microarray, fluorescence 635 nm (AID 1181);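 also: score merges 667 nm emission and signal to noise over triplicate slides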
- Condition details: small-molecule microarray binding, higher = more signal
// values below are reported composite z-score
Lab note: jot the number down without any unit.

Compound	composite z-score
CN1C(=O)C2C=CC(C(O)c3ccc(I)cc3)N(NC(=O)OC(C)(C)C)C2C1=O (configuration not stated)	0.308
Cc1cc2c(nc1C)CCCN2CC(C)ON=C1[C@H]2CCn3c(=O)n(-c4ccccc4)c(=O)n3[C@H]2[C@H](O)[C@@H]2O[C@H]12 (some centres not stated)	0.0483
CO[C@H]1COC(=O)[C@@H]2CCCN2C(=O)[C@@H](C)COC(=O)CC=C[C@@H]1C	0.285
COc1ccc(COC(=O)NN=C2C[C@@H](O)[C@@H](O)[C@@H]3[C@@H]4C(=O)N(Cc5ccc6c(c5)OCO6)C(=O)[C@@H]4CC[C@@H]23)cc1	-0.0792
C#C[C@@H](CC)O[Si](C#Cc1ccc(Oc2ccccc2)cc1)(C(C)C)C(C)C	-0.0562

Note to self: composite z-score of C[C@H]1CC[C@@H](C(=O)O)N[C@@H]1c1ccc(C#CCN(C)C)cc1 with E3 ubiquitin-protein ligase XIAP (Homo sapiens) was 0.256

Note to self: composite z-score of O[C@@H](Cc1ccccc1)[C@H]1C2C=CCCC(c3ccccc3)=C2CN1Cc1cccc(Cl)c1 (some centres not stated) with E3 ubiquitin-protein ligase XIAP (Homo sapiens) was 0.25

---

- Measurement target: Pro-neuregulin-1, membrane-bound isoform (Homo sapiens) (UniProt Q02297)
- Sequence (Q02297 whole entry, looked up, canonical isoform): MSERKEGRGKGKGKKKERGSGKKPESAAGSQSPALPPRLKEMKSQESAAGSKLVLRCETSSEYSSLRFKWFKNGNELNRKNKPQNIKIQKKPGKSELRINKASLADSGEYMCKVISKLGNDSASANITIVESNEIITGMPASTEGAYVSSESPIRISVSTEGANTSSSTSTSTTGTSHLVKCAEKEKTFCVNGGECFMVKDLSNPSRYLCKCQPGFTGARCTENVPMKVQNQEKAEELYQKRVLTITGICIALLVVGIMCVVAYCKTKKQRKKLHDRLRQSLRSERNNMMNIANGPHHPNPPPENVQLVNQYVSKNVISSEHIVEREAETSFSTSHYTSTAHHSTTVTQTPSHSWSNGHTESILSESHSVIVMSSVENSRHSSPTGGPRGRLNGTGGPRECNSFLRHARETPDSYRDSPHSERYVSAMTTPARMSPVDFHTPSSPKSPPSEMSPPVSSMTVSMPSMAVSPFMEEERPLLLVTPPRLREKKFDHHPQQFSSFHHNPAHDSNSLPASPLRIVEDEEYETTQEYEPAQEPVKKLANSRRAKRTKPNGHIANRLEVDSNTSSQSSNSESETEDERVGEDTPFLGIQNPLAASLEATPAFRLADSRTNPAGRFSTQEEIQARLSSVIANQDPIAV
- Assay overview: NRG1 binders on small-molecule microarrays, primary screen, psychiatric disease protein project, biochemical, small-molecule microarray, fluorescence 635/667 (AID 1075);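 also: score combines 667 nm spot fluorescence with signal to noise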
- Condition details: NRG1 binding, 635 nm fluorescence, higher = more signal
Think of 0.5 as a floor: if composite z-score stands on it or above, it is Yes; beneath it, No.

// known answers, use as guide
Compound string	Category
CO[C@H]1COC(=O)[C@H](C)NC(=O)[C@@H](C)COC(=O)CC=C[C@@H]1C	No
CO[C@H]1COC(=O)[C@@H]2CCCN2C(=O)[C@@H](C)COC(=O)CC=C[C@@H]1C	No
COC(=O)[C@@]1(Cc2ccc(F)cc2)[C@@H]2C(=CC(=O)[C@H]2CC(=O)C(=O)N(C)C)CN1C(=O)c1ccccc1	Yes
CC(CCC(=O)OC[C@H]1O[C@H](C#Cc2ccccc2)C=C[C@@H]1Oc1ccc(C)cc1)=NO[C@@H](C)c1cn([C@H](CO)Cc2ccccc2)nn1	No

Request: Is the recorded value of composite z-score equal to or greater than 0.5 for this compound? CCc1cc2c(nc1CC)CCN(CCC(C)=NOC[C@@H](O)COCc1ccco1)C2
Response: No

Request: Is the recorded value of composite z-score equal to or greater than 0.5 for this compound? CC(C)(C)N1C(=O)[C@H]2[C@H]3[C@H](O)[C@H](O)CC(=NO[C@@H]4O[C@H](CO)[C@@H](O)[C@H](O)[C@H]4O)[C@@H]3CC[C@H]2C1=O
Response: Yes

Request: Is the recorded value of composite z-score equal to or greater than 0.5 for this compound? COCCCNC(=O)[C@]1(Cc2ccccc2)N=C(c2ccc(OCCCO)cc2)O[C@@H]1c1ccccc1
Response: Yes
